- Measurement target: human GLP-1 receptor (human, UniProt P43220 24-463)
- Test description: cell-based or functional assay
Bridges are numbered along the chain shown (N, C = ends). Where no end group is shown, it is not given here. [ ]: non-standard residue; d: D form. The star is where a group is joined. Acetyl(2-(4-imidazolyl)) = O=C(Cc1c[nH]cn1)*; Aib = CC(C)(N)C(=O)O
Form field: In vitro activity (%) vs. GLP-1, cAMP EC50 (one value per entry).
Measured property: In vitro activity (%) vs. GLP-1, cAMP EC50

In [3]: df
Out[3]:
                                     binder  result_value
0  Y[Aib]QGTFTSDYSKYLDEKRAKEFVQWLLCHHPSSGQPPPS (bridge 16-20) [triple agonist of SEQ ID NO: 95]           2.1
1  [Acetyl(2-(4-imidazolyl))]GQGTFTSDLSKQMDSEAQQLFIEWLKNGGPSSGAPPPSHG [triple agonist of SEQ ID NO: 16]           2.1
2  H[Aib]QGTFTSDYSKYLDEKRQKEFVQWLLDTKC (bridge 16-20) [triple agonist of SEQ ID NO: 78]            51
